- SYSTEM UNDER TEST: Vitamin D3 receptor (Bos taurus) (UniProt Q28037)
- Sequence (Q28037 whole entry): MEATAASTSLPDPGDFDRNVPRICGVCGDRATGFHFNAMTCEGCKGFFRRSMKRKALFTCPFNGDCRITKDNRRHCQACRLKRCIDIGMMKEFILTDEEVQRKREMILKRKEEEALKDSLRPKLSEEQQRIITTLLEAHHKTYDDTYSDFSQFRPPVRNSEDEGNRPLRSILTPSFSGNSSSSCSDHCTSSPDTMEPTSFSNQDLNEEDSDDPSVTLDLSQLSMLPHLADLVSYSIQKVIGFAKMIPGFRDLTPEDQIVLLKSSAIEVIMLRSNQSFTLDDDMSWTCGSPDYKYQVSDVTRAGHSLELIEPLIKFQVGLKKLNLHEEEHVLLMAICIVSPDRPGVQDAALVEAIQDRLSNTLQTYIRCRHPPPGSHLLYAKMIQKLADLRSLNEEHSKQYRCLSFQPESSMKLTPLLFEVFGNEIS
- ASSAY: Affinity for bovine thymus VDR vitamin D receptor

{"COMPOUND": "C=C1/C(=C\\C=C2/CCC[C@]3(C)[C@@H]([C@H](C)CCCC(C)(C)O)CC[C@@H]23)C[C@H](O)[C@@H](C)[C@@H]1O", "Activity": "< 0.1"}
{"COMPOUND": "C=C1/C(=C\\C=C2/CCC[C@]3(C)[C@@H]([C@H](C)CCCC(C)(C)O)CC[C@@H]23)C[C@H](O)[C@H](C)[C@@H]1O", "Activity": 17}
{"COMPOUND": "C=C1/C(=C\\C=C2/CCC[C@]3(C)[C@@H]([C@H](C)CCCC(C)(C)O)CC[C@@H]23)C[C@@H](O)C[C@@H]1O [CALCITRIOL]", "Activity": 100}
